Molecular target: DCN1 (DCUND1) protein PONY domain (Homo sapiens (Human), UniProt Q96GG9)
Sequence (Q96GG9 60-248): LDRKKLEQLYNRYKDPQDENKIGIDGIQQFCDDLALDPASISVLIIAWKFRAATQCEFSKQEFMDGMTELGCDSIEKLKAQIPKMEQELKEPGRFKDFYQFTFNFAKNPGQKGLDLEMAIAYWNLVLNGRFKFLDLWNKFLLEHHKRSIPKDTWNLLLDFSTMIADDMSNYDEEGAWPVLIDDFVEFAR
Experiment: TR-FRET assay (binding to DCN-1, displacement of FAM-labeled probe)
Details: TR FRET IC50 1 hr (nM), 1 hr after treatment with compound
# IC50 values compiled below

Study these solved cases before continuing.
CCN1C(=O)[C@@H](NC(=O)c2cccc(C(F)(F)F)c2)[C@H](c2cccc(CNC(=O)C3=C(C(=O)OC)CCC3)c2)c2cnn(-c3ccccc3)c21 [Compound I-108]    1000 to 3000 nM
CCN1C(=O)[C@@H](NC(=O)c2cccc(C(F)(F)F)c2)[C@H](c2cccc(CN(C)C/C=C/C(=O)OC(C)(C)C)c2)c2cnn(-c3ccccc3)c21 [Compound I-238]    1000 to 3000 nM
C=C(C(=O)NCc1cccc([C@@H]2c3cnn(-c4ccccc4)c3N(CC)C(=O)[C@H]2NC(=O)c2ccn(C3CC3)n2)c1)C(C)N1CCC12COC2 (stereo partly drawn) [Compound I-325]    200 to 1000 nM
CCN1C(=O)[C@H](NC(=O)c2cccc(C(F)(F)F)c2)[C@@H](c2cccc(NC(=O)/C(C#N)=C/C(C)(C)C)c2)c2c(C)nn(-c3ccccc3)c21 (racemic) [Compound I-69]    200 to 1000 nM
C/C=C(\CN1CCC1)C(=O)Nc1cccc([C@@H]2c3cnn(-c4ccccc4)c3N(CC)C(=O)[C@H]2NC(=O)c2nccc(C(F)(F)F)n2)c1 [Compound I-367]    1000 to 3000 nM
CCN1C(=O)[C@@H](NC(=O)c2cccc(C(F)(F)F)c2)[C@H](c2ccccc2NC(=O)CCl)c2c(C)nn(-c3ccccc3)c21 [Compound I-52]    1000 to 3000 nM
CCN1C(=O)[C@@H](NC(=O)c2cccc(C(F)(F)F)c2)[C@@H](c2ccc(F)c(NC(=O)/C=C/CN(C)C)c2)c2cnn(-c3ccccc3)c21 (racemic) [Compound I-129]    1000 to 3000 nM
CCN1C(=O)[C@H](NC(=O)c2cccc(C(F)(F)F)c2)[C@@H](c2cccc(NC(=O)/C=C/CN(C)C)c2)c2c(C)nn(-c3ccccc3)c21 (racemic) [Compound I-38]    1000 to 3000 nM

Query :: Find the recorded IC50 belonging to CCN1C(=O)[C@@H](NC(=O)c2nccc(C(F)(F)F)n2)[C@H](c2cccc(NC(=O)/C=C/C(=O)OC(C)(C)C)c2)c2c(C)nn(-c3ccccc3)c21 (racemic) [Compound I-359] and report it.
Result :: 1000 to 3000 nM

Query :: Any idea what its IC50 is? The compound is C=C(CN1CCN(C2COC2)CC1)C(=O)N[C@H](C)c1cccc([C@@H]2c3cnn(-c4ccccc4)c3N(CC)C(=O)[C@H]2NC(=O)c2nccc(C(F)(F)F)n2)c1 (mixture of isomers) [Compound I-366]
Result :: 1000 to 3000 nM

Query :: Look at this compound and give its reported IC50. C=C(CN(C)C1COC1)C(=O)N(C)Cc1cccc([C@@H]2c3cnn(-c4ccccc4)c3N(CC)C(=O)[C@H]2NC(=O)c2csc(C(F)(F)F)n2)c1 [Compound I-318]
Result :: 200 to 1000 nM

Query :: Any idea what its IC50 is? The compound is CCN1C(=O)[C@@H](NC(=O)c2cccc(C(F)(F)F)c2)[C@H](c2ccccc2CNC(=O)/C=C/CN(C)C)c2cnn(-c3ccccc3)c21 (racemic) [Compound I-120]
Result :: 1000 to 3000 nM

Reference source for all entries: patent US12435087B2
